Reference source: paper PMC8595303

# subject_of_test: human mature TGFβ3 (Homo sapiens, UniProt P10600)
# Sequence (P10600 301-412): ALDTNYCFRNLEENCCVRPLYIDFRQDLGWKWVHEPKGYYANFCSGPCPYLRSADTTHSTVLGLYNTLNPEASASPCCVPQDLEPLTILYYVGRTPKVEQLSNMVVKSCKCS
# test_description: cell-based or functional assay
measured_metric: TGFβ inhibition by HEK-Blue cells (IC50: nM), TGFb3; Blocking: Incomplete

Exercise: Which TGFβ inhibition by HEK-Blue cells (IC50: nM), TGFb3; Blocking: Incomplete is reported for this binder? humanized 4A11 variant 6 (antibody, V domains shown, as the VH of m7 (h4A11.v2): rbt4A11 CDRs and rabbit Vernier residues grafted on human germline IGHV3-48*01; rbt4A11 CDRs and rabbit Vernier residues (VL positions 2, 4, 36, 43, 58) grafted on human germline IGKV2-24*01; human IgG1; also called h4A11.v6; v6; source: Expi293F, transient, purified (Protein A, SEC)) VH: EQQLVESGGGLVQPGGSLRLSCAVSGFSLSSYTVNWVRQAPGKGLEWIGYISYGGSAYYASWANGRFTISKDSAKNSVYLQMNSLRAEDTAVYFCARHMQVGGAPTGSMAAFDPWGPGTLVTVSS VL: DAVLTQTPLSSPVTLGQPASISCQSSQSVYNNNYLSWFQQRPGQPPRLLIYGASTLTSGVPDRFSGSGAGTDFTLKISRVEAEDVGVYYCAGGYSGSSDKYAFGGGTKVEIK
Solution: > 667 nM
